So I've got a bunch of binders here, and I need their pKd values.
# measured-on: T1, Human CD47-C33G (human, UniProt Q08722 19-135)
# T1 construct: also called CD47 mutein with C33G mutation
# experimental-protocol: SPR, IgG captured, CD47 in flow; exp 4;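 also: rates fitted from SPR association and dissociation curves, KD estimated from them, the other target is a CD47 C33G mutein, used to obtain true monovalent affinity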
Would you please state pKd, meaning minus log10 of the concentration in mol/L, as a bare number?

Query: State the recorded pKd for this entry: 108VH10 / 108VL10.M1 (antibody, V domains shown, 4D5-framework series; also called VH10 VL10.M1; straight-graft antibody) VH: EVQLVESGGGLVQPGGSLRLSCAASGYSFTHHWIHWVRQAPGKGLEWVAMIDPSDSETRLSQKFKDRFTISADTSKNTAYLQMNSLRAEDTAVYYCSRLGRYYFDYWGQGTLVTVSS VL: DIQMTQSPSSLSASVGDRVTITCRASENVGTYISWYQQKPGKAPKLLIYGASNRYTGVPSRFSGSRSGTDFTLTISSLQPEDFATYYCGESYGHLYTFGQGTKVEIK
Response: 7.55

Query: State the recorded pKd for this entry: 108VH10.Mo / 108VL10.Me (antibody, V domains shown, 4D5-framework series; also called VH10.Mo VL10.Me) VH: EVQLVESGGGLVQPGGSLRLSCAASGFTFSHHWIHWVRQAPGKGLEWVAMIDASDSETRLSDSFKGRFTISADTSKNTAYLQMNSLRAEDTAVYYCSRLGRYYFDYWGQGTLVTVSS VL: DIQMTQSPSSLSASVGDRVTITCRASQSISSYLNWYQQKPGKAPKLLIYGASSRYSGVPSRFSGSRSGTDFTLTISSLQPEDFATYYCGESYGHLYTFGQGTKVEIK
Response: 7.35

Query: State the recorded pKd for this entry: 108VH10.Mr / 108VL10.Me (antibody, V domains shown, 4D5-framework series; constant regions not restated for this series; also called VH10.Mr VL10.Me) VH: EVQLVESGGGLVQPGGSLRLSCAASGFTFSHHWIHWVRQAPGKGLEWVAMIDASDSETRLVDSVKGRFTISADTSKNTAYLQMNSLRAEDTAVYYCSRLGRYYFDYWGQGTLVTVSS VL: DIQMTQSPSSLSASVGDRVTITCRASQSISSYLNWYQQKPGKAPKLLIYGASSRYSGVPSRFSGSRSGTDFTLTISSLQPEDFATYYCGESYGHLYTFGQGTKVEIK
Response: 6.80
